- Assay overview: Selectivity ratio of IC50 for Pseudomonas aeruginosa 9027 electron transport chain to IC50 for Pseudomonas aeruginosa ATP synthase
- Assay type: toxicity
Lab note: compare Ratio IC50 against 10. Equal or greater, write class 1. Smaller, write class 0.

Some solved entries appear below for comparison.
- Smi: "CN(C)CCCNCc1cc2ccccc2nc1SCc1ccccc1"
  Assigned class: "class 0"
- Smi: "c1ccc(CSc2nc3ccccc3cc2CNCCC2CCN(C3CCCC3)CC2)cc1"
  Assigned class: "class 1"
- Smi: "CN(C)CCCCCNCc1cc2ccccc2nc1SCc1ccccc1"
  Assigned class: "class 1"
- Smi: "CN(C)CCCCNCc1cc2ccccc2nc1SCc1ccccc1"
  Assigned class: "class 1"
- Smi: "CSc1nc2ccccc2cc1CNCc1ccc(CN(C)C)cc1"
  Assigned class: "class 0"

Exam item: Confirm if Ratio IC50 reported for the compound `CCN1CCC(CCNCc2cc3ccccc3nc2SCc2ccccc2)CC1` is 10 or above.
Marked response: class 1

Exam item: Confirm if Ratio IC50 reported for the compound `CN(C)Cc1ccc(CNCc2cc3ccccc3nc2SCc2ccccc2)cc1` is 10 or above.
Marked response: class 1
